# assay_info: chemical genetic growth profiling, strain panel (AID 1159580);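 note: tested at 20 µM; growth read once vehicle control cultures reached saturation at 30 °C; 1 = growth at the plate median or of vehicle wells; lower values mean less growth of the strain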
# condition_label: S. cerevisiae deletion strains, growth OD, locus YNL071W, strain lat1
Hit rate of the full screen: of about 5,500 compounds, about 2,000 (36%) were called active. About 18% were inconclusive and are not listed. Cut-off read from the data, not from the text of the source: active = normalized growth mostly below about 0.91 (no sharp cut-off); inconclusive = no clear call, values can overlap the other calls; inactive = mostly above about 0.92. The list shows a part of the results.
Give your call using only these classes: active, inactive

**Q:** Kindly provide the recorded test outcome for the following compound: CC(C)(Sc1cc(C(C)(C)C)c(O)c(C(C)(C)C)c1)Sc1cc(C(C)(C)C)c(O)c(C(C)(C)C)c1
**A:** inactive

**Q:** Kindly provide the recorded test outcome for the following compound: Clc1ccccc1C(c1ccccc1)(c1ccccc1)n1ccnc1
**A:** active

**Q:** Kindly provide the recorded test outcome for the following compound: Cc1cc(C(C)(C)C)c(O)c(C(C)(C)C)c1
**A:** inactive

**Q:** Kindly provide the recorded test outcome for the following compound: Nc1ccccc1C(=O)CC(N)C(=O)O (stereo unspecified)
**A:** inactive

**Q:** Kindly provide the recorded test outcome for the following compound: FC(F)(F)c1ccccc1-n1ccnc1
**A:** inactive

**Q:** Kindly provide the recorded test outcome for the following compound: C/C=C(/C)C(=O)OC1CCC2(C)C3CCC4C5(O)CC(O)C6(O)C(CN7CC(C)CCC7C6(C)O)C5(O)CC42OC13O (stereo unspecified)
**A:** inactive

###

I'd be grateful if you could share measured normalized growth for these entries.
# assay_info: chemical genetic growth profiling, strain panel (AID 1159580);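 note: tested at 20 µM; growth read once vehicle control cultures reached saturation at 30 °C; 1 = growth at the plate median or of vehicle wells; lower values mean less growth of the strain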
# condition_label: S. cerevisiae deletion strains, growth OD, locus YKL085W, strain MDH1, stronger effect = lower value
The whole screen tested about 5,500 compounds, of which about 2,000 (36%) were called active. About 18% were inconclusive and are not listed. The list shows a part of the results. Where a SMILES comes first, the peptide text is derived from it. Bridges are numbered along the chain shown (N, C = ends). [ ]: non-standard residue; d: D form. The star is where a group is joined. ξ: configuration not given here. ξDab(CH2SO3H) = NC(CCNCS(=O)(=O)O)C(=O)O; Heptanoyl(6-Me) = CC(C)CCCCC(=O)*; Dab = NCC[CH](N)C(=O)O
Please give the numeric answer without any surrounding text.

**Q:** I am curious: what normalized growth value has been reported for CCC(C)C1NC(=O)C(CCNCS(=O)(=O)O)NC(=O)C(NC(=O)C(CCNCS(=O)(=O)O)NC(=O)C(NC(=O)C(CCNCS(=O)(=O)O)NC(=O)CCCCC(C)C)C(C)O)CCNC(=O)C(C(C)O)NC(=O)C(CCNCS(=O)(=O)O)NC(=O)C(CCNCS(=O)(=O)O)NC(=O)C(C(C)CC)NC1=O (stereo not drawn) ({Heptanoyl(6-Me)}-[ξDab(CH2SO3H)]T[ξDab(CH2SO3H)][Dab][ξDab(CH2SO3H)]II[ξDab(CH2SO3H)][ξDab(CH2SO3H)]T; lactam 4-C; configuration not given here) ?
**A:** 0.951

**Q:** I am curious: what normalized growth value has been reported for COC(=O)Nc1nc2ccc(Sc3ccccc3)cc2[nH]1 ?
**A:** 0.959

**Q:** I am curious: what normalized growth value has been reported for C/C=C(/C)C(=O)OC1CCC2(C)C3CCC4C5(O)CC(O)C6(O)C(CN7CC(C)CCC7C6(C)O)C5(O)CC42OC13O (stereo not drawn) ?
**A:** 0.948

**Q:** I am curious: what normalized growth value has been reported for Cc1cc(O)ccc1Cl ?
**A:** 0.998

**Q:** I am curious: what normalized growth value has been reported for COc1cc(C(=O)O[C@H]2CC[C@@]3(C)[C@@H]4CC[C@H]5[C@]6(O)C[C@H](O)[C@@]7(O)[C@@H](CN8C[C@@H](C)CC[C@H]8[C@@]7(C)O)[C@]6(O)C[C@@]53O[C@]24O)cc(OC)c1OC ?
**A:** 1

**Q:** I am curious: what normalized growth value has been reported for NCCC(=O)N[C@@H](Cc1cnc[nH]1)C(=O)O ?
**A:** 0.975

**Q:** I am curious: what normalized growth value has been reported for C#C[C@]1(OC(C)=O)CCC2C3CCC4=CC(=O)CC[C@@H]4C3CC[C@@]21C (stereo partly drawn) ?
**A:** 0.967

**Q:** I am curious: what normalized growth value has been reported for CC(=O)OC1CC[C@@]2(C)C(CC[C@]3(C)C2CCC2C4CC(C)(C)CCC4(C(=O)O)CC[C@]23C)C1(C)C (stereo partly drawn) ?
**A:** 1.01

**Q:** I am curious: what normalized growth value has been reported for CC(=O)OC1CC(OC(C)=O)C2(C)C(CC(OC(C)=O)C3(C)C4=CC(=O)OC(=O)C4(C)CCC32)C1(C)C (stereo not drawn) ?
**A:** 0.987

**Q:** I am curious: what normalized growth value has been reported for COC(=O)C[C@H]1C(C)(C)C2(O)OC34CC2C(=O)[C@]1(C)C3CC[C@]1(C)C4=CC(=O)O[C@H]1c1ccoc1 (stereo partly drawn) ?
**A:** 1.02

**Q:** I am curious: what normalized growth value has been reported for CC(=O)O[C@H]1CC[C@@]2(C)C(CC[C@]3(C)C2CC=C2C4CC(C)(C)CC[C@]4(C)CC[C@]23C)C1(C)C (stereo partly drawn) ?
**A:** 1.01

**Q:** I am curious: what normalized growth value has been reported for C/C=C(/C)C(=O)O[C@H]1CC[C@@]2(C)[C@@H]3CC[C@H]4[C@]5(O)C[C@H](O)[C@@]6(O)[C@@H](CN7C[C@@H](C)CC[C@H]7[C@@]6(C)O)[C@]5(O)C[C@@]42O[C@]13O ?
**A:** 0.979

**Q:** I am curious: what normalized growth value has been reported for COC(=O)Nc1nc2ccc(C(=O)c3ccccc3)cc2[nH]1 ?
**A:** 1.05
